Sourced from ChEMBL document CHEMBL1142528

These records show Ki for Sodium-dependent serotonin transporter (Homo sapiens, UniProt P31645).
One number for each entry, in nM.

Exercise: Query: Ki; subject: CCCCCCc1ccc2c(c1)Cc1ccccc1C2CN (stereo not drawn)
Solution: 490

Attention now turns to another entry.
Exercise: Query: Ki; subject: NCC1c2ccccc2Cc2cc(Br)ccc21 (stereo not drawn)
Solution: 1200

---

Target: 5-hydroxytryptamine receptor 2A (Homo sapiens, UniProt P28223, F340L)
Sequence (P28223 whole entry F340L): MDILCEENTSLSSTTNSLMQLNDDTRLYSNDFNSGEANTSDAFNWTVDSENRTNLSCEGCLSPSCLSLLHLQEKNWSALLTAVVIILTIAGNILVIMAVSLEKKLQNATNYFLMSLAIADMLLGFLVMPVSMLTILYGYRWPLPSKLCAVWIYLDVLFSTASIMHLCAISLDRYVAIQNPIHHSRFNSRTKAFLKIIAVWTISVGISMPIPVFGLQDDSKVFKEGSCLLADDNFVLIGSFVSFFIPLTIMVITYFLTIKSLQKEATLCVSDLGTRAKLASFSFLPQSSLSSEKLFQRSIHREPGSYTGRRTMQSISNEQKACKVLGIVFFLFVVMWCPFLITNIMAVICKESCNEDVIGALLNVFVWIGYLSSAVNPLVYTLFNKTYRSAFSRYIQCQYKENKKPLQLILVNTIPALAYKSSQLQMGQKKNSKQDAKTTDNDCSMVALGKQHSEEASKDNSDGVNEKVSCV
Assay: Displacement of [3H]ketanserein from 5HT2A receptor F340L mutant expressed in NIH3T3 cells
Property Measured: Ki (nM)
One number for each entry, in nM.

Exercise: Query: Ki; subject: NCC(c1ccccc1)c1ccc(Br)cc1 (configuration not stated)
Solution: 3.5

Attention now turns to another entry.
Exercise: Query: Ki; subject: NCC1c2ccccc2Cc2cc(Br)ccc21 (configuration not stated)
Solution: 1.8
